Tested on: BCRP
Procedure details: Permeability experiments in the 3D-BBB system (hiPS-BMECs on OrganoPlate 3-lane)
Reported conditions: human, pH 7.4, with Ko143 1 µM (BCRP inhibitor), Efflux ratio (B-to-A/A-to-B), + 1 μM Ko143 (BCRP inhibitor)
Procedure: The 3D-BBB system using the OrganoPlate® 3-lane plate was constructed with some modifications to the protocol published by MIMETAS. […] Permeability experiments were performed on day 10, at 48 h after seeding hiPS-BMECs on the plate. […] In all permeability experiments, the amount of lucifer yellow transported through the paracellular pathway to the receiver side was measured with a SpectraMax i3x (Molecular Devices, San Jose, CA) as a measure of cell-to-cell tightness. […]

{"Entry smiles": "Nc1nc(Cl)nc2c1ncn2[C@H]1C[C@H](O)[C@@H](CO)O1", "System name": "BCRP", "efflux ratio at 4 h": 1.45}

----------
Recorded measurements of Papp B→A at 4 h, one per entry
Procedure details: Permeability experiments in the 3D-BBB system (hiPS-BMECs on OrganoPlate 3-lane)
Reported conditions: human, pH 7.4
Description: The 3D-BBB system using the OrganoPlate® 3-lane plate was constructed with some modifications to the protocol published by MIMETAS. […] Permeability experiments were performed on day 10, at 48 h after seeding hiPS-BMECs on the plate. […] In all permeability experiments, the amount of lucifer yellow transported through the paracellular pathway to the receiver side was measured with a SpectraMax i3x (Molecular Devices, San Jose, CA) as a measure of cell-to-cell tightness. […]

{"Molecule": "NCC1(CC(=O)O)CCCCC1", "Papp B→A at 4 h [×10⁻⁶ cm/s]": 6.4}
{"Molecule": "Cc1cc(=O)n(-c2ccccc2)n1C [Antipyrine]", "Papp B→A at 4 h [×10⁻⁶ cm/s]": 35.1}
{"Molecule": "C=C[C@H]1C[N@@]2CC[C@H]1C[C@@H]2[C@@H](O)c1ccnc2ccc(OC)cc12", "Papp B→A at 4 h [×10⁻⁶ cm/s]": 22.8}
{"Molecule": "Nc1nc(Cl)nc2c1ncn2[C@H]1C[C@H](O)[C@@H](CO)O1", "Papp B→A at 4 h [×10⁻⁶ cm/s]": 15.1}

----------
Recorded measurements of efflux ratio at 4 h, one per entry
Procedure details: Permeability experiments in the 3D-BBB system (hiPS-BMECs on OrganoPlate 3-lane)
Reported conditions: human, pH 7.4, Efflux ratio (B-to-A/A-to-B), Control
Protocol: The 3D-BBB system using the OrganoPlate® 3-lane plate was constructed with some modifications to the protocol published by MIMETAS. […] Permeability experiments were performed on day 10, at 48 h after seeding hiPS-BMECs on the plate. […] In all permeability experiments, the amount of lucifer yellow transported through the paracellular pathway to the receiver side was measured with a SpectraMax i3x (Molecular Devices, San Jose, CA) as a measure of cell-to-cell tightness. […]
Recorded endpoint: efflux ratio at 4 h

{"Molecule": "Cc1cc(=O)n(-c2ccccc2)n1C [Antipyrine]", "Recorded endpoint": "efflux ratio at 4 h", "Numeric value": 1.05}
{"Molecule": "C=C[C@H]1C[N@@]2CC[C@H]1C[C@@H]2[C@@H](O)c1ccnc2ccc(OC)cc12", "Recorded endpoint": "efflux ratio at 4 h", "Numeric value": 1.06}
{"Molecule": "Nc1nc(Cl)nc2c1ncn2[C@H]1C[C@H](O)[C@@H](CO)O1", "Recorded endpoint": "efflux ratio at 4 h", "Numeric value": 5.6}

----------
Procedure details: Permeability experiments in the 3D-BBB system (hiPS-BMECs on OrganoPlate 3-lane)
Reported conditions: human, pH 7.4
Recorded measurements of Papp A→B at 4 h, one per entry

{"Molecule": "Cc1cc(=O)n(-c2ccccc2)n1C [Antipyrine]", "Unit of measure": "×10⁻⁶ cm/s", "Papp A→B at 4 h": 33.4}
{"Molecule": "C=C[C@H]1C[N@@]2CC[C@H]1C[C@@H]2[C@@H](O)c1ccnc2ccc(OC)cc12 [Quinidine]", "Unit of measure": "×10⁻⁶ cm/s", "Papp A→B at 4 h": 21.6}
{"Molecule": "Nc1nc(Cl)nc2c1ncn2[C@H]1C[C@H](O)[C@@H](CO)O1 [Cladribine]", "Unit of measure": "×10⁻⁶ cm/s", "Papp A→B at 4 h": 2.69}
{"Molecule": "NCC1(CC(=O)O)CCCCC1 [Gabapentin]", "Unit of measure": "×10⁻⁶ cm/s", "Papp A→B at 4 h": 16}

----------
Procedure details: Permeability experiments in the 3D-BBB system (hiPS-BMECs on OrganoPlate 3-lane)
Reported conditions: human, pH 7.4

{"Entry smiles": "NCC1(CC(=O)O)CCCCC1", "efflux ratio at 4 h": 0.401}
